These entries and their values trace back to ChEMBL document CHEMBL1130898.

Consider the following Ki values measured on Substance-K receptor (Homo sapiens, UniProt P21452).
Sequence (P21452 whole entry): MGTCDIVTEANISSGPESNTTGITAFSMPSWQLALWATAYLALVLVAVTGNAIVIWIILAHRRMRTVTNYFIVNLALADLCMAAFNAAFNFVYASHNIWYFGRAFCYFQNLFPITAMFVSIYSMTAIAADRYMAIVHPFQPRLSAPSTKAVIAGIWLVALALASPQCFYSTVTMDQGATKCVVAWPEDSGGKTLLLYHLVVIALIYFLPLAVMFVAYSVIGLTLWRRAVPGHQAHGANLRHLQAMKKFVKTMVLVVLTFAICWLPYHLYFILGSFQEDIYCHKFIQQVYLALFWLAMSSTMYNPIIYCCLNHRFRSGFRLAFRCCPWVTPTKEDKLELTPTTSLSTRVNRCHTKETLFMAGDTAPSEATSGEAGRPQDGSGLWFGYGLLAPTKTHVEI
Numbers only here, please. The scale is nM.

1. CC(=O)NC1(c2ccccc2)CCN(CCC(CN(C)C(=O)c2ccccc2)c2ccc(Cl)c(Cl)c2)CC1 (stereo in doubt; 1)
0.6
2. CC(=O)NCCC1CCN(CCC(CN(C)C(=O)c2ccccc2)c2ccc(Cl)c(Cl)c2)CC1 (configuration not stated)
66
3. CCC(=NO)C1CCN(CCC(CN(C)C(=O)c2ccccc2)c2ccc(Cl)c(Cl)c2)CC1 (configuration not stated)
2.7
4. CCC(O)C1CCN(CCC(CN(C)C(=O)c2ccccc2)c2ccc(Cl)c(Cl)c2)CC1 (configuration not stated)
13.1
5. CCCC(O)C1CCN(CCC(CN(C)C(=O)c2ccccc2)c2ccc(Cl)c(Cl)c2)CC1 (configuration not stated)
3.7
6. CC(=O)NC1(c2ccccc2)CCN(CCC(CN(C)C(=O)c2ccccc2)c2ccc(Cl)c(Cl)c2)CC1 (stereo in doubt; 2)
1.75

Now consider a different molecule.
Endpoint output: Ki of CCCC(O)(CCC)C1CCN(CCC(CN(C)C(=O)c2ccccc2)c2ccc(Cl)c(Cl)c2)CC1 (configuration not stated) . Value?
4.7

###

STUDY_SYSTEM: Substance-K receptor (Cavia porcellus) (UniProt Q64077)
Sequence (Q64077 whole entry): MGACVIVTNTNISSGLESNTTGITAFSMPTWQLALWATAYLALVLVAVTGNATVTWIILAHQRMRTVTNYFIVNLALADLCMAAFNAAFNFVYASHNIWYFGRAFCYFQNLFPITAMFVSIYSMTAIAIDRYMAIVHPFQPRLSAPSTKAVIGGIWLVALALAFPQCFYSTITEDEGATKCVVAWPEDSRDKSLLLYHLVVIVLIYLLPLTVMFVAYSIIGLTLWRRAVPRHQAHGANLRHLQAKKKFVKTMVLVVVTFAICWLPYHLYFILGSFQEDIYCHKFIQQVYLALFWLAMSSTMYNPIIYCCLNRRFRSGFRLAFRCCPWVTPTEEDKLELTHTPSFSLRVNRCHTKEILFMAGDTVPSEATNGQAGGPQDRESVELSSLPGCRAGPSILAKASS
METHOD: Inhibition of [beta-Ala]NKA(4-10)-induced contraction of isolated guinea pig trachea
Type: functional, tissue-based
Each entry below carries its reported pKB.

Known results for compounds:
1) CC/C(=N\O)C1CCN(CCC(CN(C)C(=O)c2ccccc2)c2ccc(Cl)c(Cl)c2)CC1 (stereo not given)
8.8
2) CCC(=O)C1CCN(CCC(CN(C)C(=O)c2ccccc2)c2ccc(Cl)c(Cl)c2)CC1 (stereo not given)
8.6
3) CCC(O)C1CCN(CCC(CN(C)C(=O)c2ccccc2)c2ccc(Cl)c(Cl)c2)CC1 (stereo not given)
7.9
4) CN(CC(CCN1CCC(C(C)(C)O)CC1)c1ccc(Cl)c(Cl)c1)C(=O)c1ccccc1 (stereo not given)
7.5

Endpoint output: pKB of CN(CC(CCN1CCC(CCO)CC1)c1ccc(Cl)c(Cl)c1)C(=O)c1ccccc1 (stereo not given) . Value?
8.3

###

STUDY_SYSTEM: Substance-K receptor (Cavia porcellus)
METHOD: Inhibition of [beta-Ala]NKA(4-10)-induced contraction of isolated guinea pig trachea
Assay type: functional, tissue-based
MEASURED_PROPERTY: pKB
API doc: respond with a numeric literal and nothing else, no unit.

1) CCCC(O)(CCC)C1CCN(CCC(CN(C)C(=O)c2ccccc2)c2ccc(Cl)c(Cl)c2)CC1 (stereo not given)
8.4

Now consider a different compound.
Hi! What's the reported pKB for CC(=O)OCCC1CCN(CCC(CN(C)C(=O)c2ccccc2)c2ccc(Cl)c(Cl)c2)CC1 (stereo not given) on Substance-K receptor (Cavia porcellus)?
7.8

###

STUDY_SYSTEM: Substance-K receptor (Cavia porcellus)
METHOD: Inhibition of [beta-Ala]NKA(4-10)-induced contraction of isolated guinea pig trachea
Format: functional, tissue-based
Each entry below carries its reported pKB.

Known results for compounds:
1. CCC(=NO)C1CCN(CCC(CN(C)C(=O)c2ccccc2)c2ccc(Cl)c(Cl)c2)CC1 (stereo not drawn)
9.1
2. CC/C(=N\OC)C1CCN(CCC(CN(C)C(=O)c2ccccc2)c2ccc(Cl)c(Cl)c2)CC1 (stereo not drawn)
7.6

Now consider a different compound.
Endpoint output: pKB of CN(CC(CCN1CCC(CO)CC1)c1ccc(Cl)c(Cl)c1)C(=O)c1ccccc1 (stereo not drawn) . Value?
8
